biological target: UniProt:P47901; experiment: Agonist activity at recombinant human vasopressin V1b receptor expressed in Flp-In-293 cells by luciferase reporter gene assay; type: functional, cell-based; settings: read-out: EC50
Sequence (P47901 whole entry): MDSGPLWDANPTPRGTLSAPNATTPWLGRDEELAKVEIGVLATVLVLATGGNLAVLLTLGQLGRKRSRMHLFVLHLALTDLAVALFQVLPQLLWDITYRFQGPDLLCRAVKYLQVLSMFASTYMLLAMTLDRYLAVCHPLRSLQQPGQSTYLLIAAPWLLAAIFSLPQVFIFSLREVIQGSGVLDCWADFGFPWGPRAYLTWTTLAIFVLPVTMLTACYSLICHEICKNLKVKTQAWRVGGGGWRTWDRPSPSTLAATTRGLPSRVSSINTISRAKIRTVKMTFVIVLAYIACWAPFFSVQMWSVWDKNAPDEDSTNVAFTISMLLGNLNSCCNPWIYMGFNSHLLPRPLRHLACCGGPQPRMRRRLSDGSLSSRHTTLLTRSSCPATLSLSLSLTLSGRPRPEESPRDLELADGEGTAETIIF
pEC50: −log10 of the molar value. Bridge positions count the residues as written; N and C are the ends. Square brackets hold non-standard residues; d marks the D form. Peptide text beside a SMILES is read from it. Orn(iPr) = CC(C)NCCC[C@H](N)C(=O)O; Orn(Pr) = CCCNCCC[C@H](N)C(=O)O; Orn = NCCC[C@H](N)C(=O)O
MEASURED PROPERTY: pEC50

compound="CCNC(=O)C[C@@H]1NC(=O)[C@H]([C@@H](C)CC)NC(=O)[C@H](Cc2ccccc2)NC(=O)[C@@H](N)CSSC[C@@H](C(=O)N2CCC[C@H]2C(=O)N[C@@H](CCCN)C(=O)NCC(N)=O)NC(=O)[C@H](CC(N)=O)NC1=O (H-CFID(NHEt)NCP[Orn]G-NH2; disulfide 1-6)" target=UniProt:P47901 result_number=7.52
compound="CCCNCCC[C@H](NC(=O)[C@@H]1CCCN1C(=O)[C@@H]1CSSC[C@H](N)C(=O)N[C@@H](Cc2ccccc2)C(=O)N[C@@H]([C@@H](C)CC)C(=O)N[C@@H](CC(N)=O)C(=O)N[C@@H](CC(N)=O)C(=O)N1)C(=O)NCC(N)=O (H-CFINNCP[Orn(Pr)]G-NH2; disulfide 1-6)" target=UniProt:P47901 result_number=7.51
compound="CC[C@H](C)[C@@H]1NC(=O)[C@H](Cc2ccccc2)NC(=O)[C@@H](N)CSSC[C@@H](C(=O)N2CCC[C@H]2C(=O)N[C@@H](CCCNC(C)C)C(=O)NCC(N)=O)NC(=O)[C@H](CC(N)=O)NC(=O)[C@H](CC(N)=O)NC1=O (H-CFINNCP[Orn(iPr)]G-NH2; disulfide 1-6)" target=UniProt:P47901 result_number=6.60
